tested on: Clostridium perfringens NCTC 8237; assay: microbe, parasite or virus in culture; type: cell-based; conditions: Clostridium perfringens, NCTC8237, Clostridium perfringens NCTC 8237; procedures of Example 40
QUANTITY MEASURED: MIC (mg/L)
Give the number; mg/L is assumed, so skip it.

Lookup: Quick one: MIC for COc1ccc(C2=[N+]([O-])c3cccnc3N3CC(C)(C)CN=C23)cc1OC ?
Found: 6.2

Lookup: [O-][N+]1=C(c2ccccc2)C2=NCC3(CCCCC3)CN2c2ccncc21 , same question.
Found: 12.5

Lookup: CC1(C)CN=C2C(c3ccccc3)=[N+]([O-])c3ccncc3N2C1 , same question.
Found: 25

Lookup: Cc1ccc(C2=[N+]([O-])c3cnccc3N3CC(C)(C)CN=C23)cc1 , same question.
Found: 1.5

Lookup: CC1(C)CN=C2C(c3ccc(F)cc3)=[N+]([O-])c3cccnc3N2C1 , same question.
Found: 12.5

Lookup: CCC1(CC)CN=C2C(c3ccccc3)=[N+]([O-])c3cccnc3N2C1 , same question.
Found: 1.5

Lookup: CC1CN=C2C(c3ccccc3)=[N+]([O-])c3cccnc3N2C1 (stereo not drawn) , same question.
Found: 6.2

Lookup: CCC1(C)CN=C2C(c3ccccc3)=[N+]([O-])c3cnccc3N2C1 (stereo not drawn) , same question.
Found: 6.2

Lookup: CCC1(C)CN=C2C(c3ccccc3)=[N+]([O-])c3cccnc3N2C1 (stereo not drawn) , same question.
Found: 6.2

----------
Would you kindly list ED (1 log reduction) for each of these compounds?
tested on: B. fragilis 23745; details: Bacteroides fragilis, 23745, in Mus musculus, po, 48 h, read-out: DOSE GIVING 1 LOG REDUCTION, p.o., after infection and twice daily for 2 days; log CFU/ml liver homogenate; test compound
Give the number; mg/kg is assumed, so skip it.

Lookup: Quick one: ED (1 log reduction) for CC1(C)CN=C2C(c3ccc(F)cc3)=[N+]([O-])c3cccnc3N2C1 ?
Found: 1

Lookup: CC1(C)CN=C2C(c3ccc(Cl)cc3)=[N+]([O-])c3cccnc3N2C1 , same question.
Found: 17.4

Lookup: CC1(C)CN=C2C(c3ccccc3)=[N+]([O-])c3cnccc3N2C1 , same question.
Found: 4.1

Lookup: [O-][N+]1=C(c2ccccc2)C2=NCC3(CCCCC3)CN2c2ncccc21 , same question.
Found: 3.5

Lookup: CC1(C)CN=C2C(c3ccc(Cl)cc3)=[N+]([O-])c3cnccc3N2C1 , same question.
Found: 3.2

Lookup: CC1(C)CN=C2C(c3ccccc3)=[N+]([O-])c3cccnc3N2C1 , same question.
Found: 0.8

Lookup: CCC1(C)CN=C2C(c3ccccc3)=[N+]([O-])c3cccnc3N2C1 (stereo not drawn) , same question.
Found: 2.2

Lookup: COc1ccc(C2=[N+]([O-])c3cccnc3N3CC(C)(C)CN=C23)cc1OC , same question.
Found: 2.7

Lookup: Cc1ccc(C2=[N+]([O-])c3cccnc3N3CC(C)(C)CN=C23)cc1 , same question.
Found: 4.2

Lookup: Cc1ccc(C2=[N+]([O-])c3cnccc3N3CC(C)(C)CN=C23)cc1 , same question.
Found: 1.5

Lookup: CC1CN=C2C(c3ccccc3)=[N+]([O-])c3cnccc3N2C1 (stereo not drawn) , same question.
Found: 2.7

Lookup: CCC1(C)CN=C2C(c3ccccc3)=[N+]([O-])c3cnccc3N2C1 (stereo not drawn) , same question.
Found: 1.9

Lookup: CCC1(CC)CN=C2C(c3ccccc3)=[N+]([O-])c3cnccc3N2C1 , same question.
Found: 1.9

Lookup: CCC1(CC)CN=C2C(c3ccccc3)=[N+]([O-])c3cccnc3N2C1 , same question.
Found: 3.4

Lookup: CCCC1(C)CN=C2C(c3ccccc3)=[N+]([O-])c3cccnc3N2C1 (stereo not drawn) , same question.
Found: 2.5
